Assayed target: T1, Recombinant human glypican-3 (aa 1-559), His-tagged (R&D Systems) (human, UniProt P51654 25-559)
T1 construct: also called huGPC3; human GPC3
T1 sequence (P51654 other isoform, or with tags, fused parts or gaps): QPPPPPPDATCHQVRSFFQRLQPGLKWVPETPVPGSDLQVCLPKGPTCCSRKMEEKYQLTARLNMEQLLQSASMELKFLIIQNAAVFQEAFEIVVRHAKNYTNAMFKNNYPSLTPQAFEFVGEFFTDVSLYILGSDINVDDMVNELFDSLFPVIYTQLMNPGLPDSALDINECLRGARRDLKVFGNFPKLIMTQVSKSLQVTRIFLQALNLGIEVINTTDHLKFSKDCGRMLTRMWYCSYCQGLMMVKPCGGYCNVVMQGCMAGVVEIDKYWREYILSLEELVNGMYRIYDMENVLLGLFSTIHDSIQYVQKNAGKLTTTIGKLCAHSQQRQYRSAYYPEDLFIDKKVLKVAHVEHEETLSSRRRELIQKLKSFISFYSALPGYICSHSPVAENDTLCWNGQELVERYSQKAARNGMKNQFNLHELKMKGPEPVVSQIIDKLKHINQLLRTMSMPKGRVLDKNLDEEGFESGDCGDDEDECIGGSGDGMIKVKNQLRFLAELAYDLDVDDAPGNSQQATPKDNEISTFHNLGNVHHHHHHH
Experiment summary: SPR 1-point off-rate, ratio to parental ADX_6077_F02
Experimental readout: huGPC3 koff (mut/par)
In your response, put the unit directly after the numeric value.

Binder	huGPC3 koff (mut/par)
ADX_6077_F02 DG→EG mutant, alkylated (designed binder, C-terminal cysteine alkylated, also called P1-055673) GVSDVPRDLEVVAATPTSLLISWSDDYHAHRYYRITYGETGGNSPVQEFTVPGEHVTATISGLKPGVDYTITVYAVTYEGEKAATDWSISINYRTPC	5.4 ratio mutant/parent

Give its huGPC3 koff (mut/par) value. Item: ADX_6077_F02 DG→SG mutant, alkylated (designed binder, C-terminal cysteine alkylated, also called P1-055668) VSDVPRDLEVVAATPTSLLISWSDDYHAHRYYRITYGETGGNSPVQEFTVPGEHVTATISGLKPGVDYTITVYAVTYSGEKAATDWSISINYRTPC
5.2 ratio mutant/parent

Provenance of the data: patent US20190077844A1
